// each record: one item and its pIC50 for Prostaglandin G/H synthase 1 (Homo sapiens, UniProt P23219)
pIC50: −log10 of the molar value.
observation-type: pIC50

> print(dat)
                       smiles.representation  reported.measurement
 1  Cc1ncccc1-c1nc(C(F)(F)F)cn1-c1ccc(S(C)(=O)=O)cc1                < 4.00
 2  Cc1cncc(-c2nc(C(F)(F)F)cn2-c2ccc(S(N)(=O)=O)cc2)c1                < 3.00
 3  Cc1csc(-c2nc(C(F)(F)F)cn2-c2ccc(S(N)(=O)=O)cc2)n1                < 3.00
 4  CS(=O)(=O)c1ccc(-n2cc(C(F)F)nc2-c2cccnc2)cc1                < 4.00
 5  CS(=O)(=O)c1ccc(-n2cc(C#N)nc2-c2cccnc2)cc1                < 4.00
 6  Cc1nc(-c2nc(C(F)(F)F)cn2-c2ccc(S(C)(=O)=O)cc2)co1                < 4.00
 7  CS(=O)(=O)c1ccc(-n2cc(C(F)(F)F)nc2-c2ccccn2)cc1                < 3.00
 8  Cc1cn(-c2ccc(S(C)(=O)=O)cc2)c(-c2cccnc2)n1                < 4.00
 9  Cc1ccc(-c2nc(C(F)(F)F)cn2-c2ccc(S(N)(=O)=O)cc2)nc1                  3.52
10  CS(=O)(=O)c1ccc(-n2cc(C(F)(F)F)nc2-c2cc(Br)cs2)cc1                < 3.00
11  Cc1ncc(-c2nc(C(F)(F)F)cn2-c2ccc(S(N)(=O)=O)cc2)s1                < 3.00
12  COc1cncc(-c2nc(C(F)(F)F)cn2-c2ccc(S(C)(=O)=O)cc2)c1                < 4.00
13  Cc1cc(-c2nc(C(F)(F)F)cn2-c2ccc(S(N)(=O)=O)cc2)no1                < 3.00

Measured values drawn from ChEMBL document CHEMBL1133620 for this set.
